System: Lamium purpureum
Assay: Pre-emergence test
Format: in vivo
Details: 0.100 kg/ha, 3 weeks after treatment
OBSERVATION TYPE: Assessment (pre-emergence application) LAMPU

So what's the measured Assessment (pre-emergence application) LAMPU for this one? Cn1nc(C(F)(F)F)cc1Oc1cccc(C#Cc2ccccc2)n1
8 (8-Approaching complete kill)

====

System: Echinochloa crus-galli
Assay: Post-emergence herbicidal activity test
Assay type: in vivo
Details: 0.400 kg/ha, 2-4 weeks after treatment
# Post-emergence application ECHCG per entry

Recorded Post-emergence application ECHCG, per entry:
>>> print(df.to_string())
                                   compound                  recorded_result
0  Cc1cc(C#Cc2ccccc2)nc(Oc2cc(C(F)(F)F)nn2C)c1 [Example 1]  8 (8-Approaching complete kill)
1  Cc1cc(Oc2cc(C(F)(F)F)nn2C)nc(C#Cc2ccccc2)n1 [Example 161]              2 (2-Slight effect)
2  COc1cc(C#Cc2ccccc2)nc(Oc2cc(C(F)(F)F)nn2C)c1 [Example 27]     7 (7-Good herbicidal effect)
3  Cn1nc(C(F)(F)F)cc1Oc1cccc(C#Cc2ccccc2)n1 [Example 31]            5 (5-Definite injury)

From here, focus on the item given below.
Requested read-out: Post-emergence application ECHCG. Entry: Cc1cc(C#Cc2ccc(F)cc2)nc(Oc2cc(C(F)(F)F)nn2C)c1 [Example 2]
8 (8-Approaching complete kill)

====

Tested on: Ipomoea hederacea
Test: Post-emergence herbicidal activity test
Assay type: in vivo
Conditions: 0.100 kg/ha, 2-4 weeks after treatment
Procedure: To evaluate their herbicidal activity, compounds according to the invention are tested using a representative range of plants: These acetone solutions are diluted with water and the resulting formulations applied at dosage levels equivalent of about 0.025 to 0. 4 kg per hectare of test compound per pot. After spraying the plants are placed on greenhouse benches and are cared for in the usual manner, commensurate with conventional greenhouse practices. […]
OBSERVATION TYPE: Post-emergence application IPOHE

For orientation, consider the following solved cases.
                         structure_notation                  observation_type               recorded_result
0  Cc1cc(Oc2cc(C(F)(F)F)nn2C)nc(C#Cc2ccccc2)n1  Post-emergence application IPOHE           9 (9-Complete kill)
1  COc1cc(C#Cc2ccccc2)nc(Oc2cc(C(F)(F)F)nn2C)c1  Post-emergence application IPOHE       6 (6-Herbicidal effect)
2  Cn1nc(C(F)(F)F)cc1Oc1cccc(C#Cc2ccccc2)n1  Post-emergence application IPOHE  7 (7-Good herbicidal effect)

Endpoint output: Post-emergence application IPOHE of Cc1cc(C#Cc2ccc(F)cc2)nc(Oc2cc(C(F)(F)F)nn2C)c1 . Value?
7 (7-Good herbicidal effect)

====

Test system: Triticum aestivum
Experiment: Pre-emergence test
Assay type: in vivo
Details: 0.025 kg/ha, 3 weeks after treatment
OBSERVATION TYPE: Assessment (pre-emergence application) TRZWA

Worked set:
In [3]: df
Out[3]:
                         structure_notation     recorded_result
0  Cc1cc(Oc2cc(C(F)(F)F)nn2C)nc(C#Cc2ccccc2)n1     0 (0-No effect)
1  Cn1nc(C(F)(F)F)cc1Oc1cccc(C#Cc2ccccc2)n1     0 (0-No effect)
2  COc1cc(C#Cc2ccccc2)nc(Oc2cc(C(F)(F)F)nn2C)c1  1 (1-Trace effect)
3  Cc1cc(C#Cc2ccccc2)nc(Oc2cc(C(F)(F)F)nn2C)c1     0 (0-No effect)

# context switch: different compound, same Assessment (pre-emergence application) TRZWA
Form field: reported Assessment (pre-emergence application) TRZWA of Cc1cc(C#Cc2ccc(F)cc2)nc(Oc2cc(C(F)(F)F)nn2C)c1
0 (0-No effect)

meta.source: patent US6872690B2
